System: 786-0
Assay: NCI tumour cell line growth inhibition, 48 h
Active and inactive are the calls of the source. No stated cut-off is given here; in the data, active = GI50 up to about 1.1 µM and inactive = higher.
# GI50 per record follows
Assay Endpoint: GI50

[[record]]
compound = "CCOC(=O)c1c(NC(=O)c2ccccc2)c(C#N)c2n1CCCCC2"
result = "> 100 µM (inactive)"

[[record]]
compound = "CC1(C)OP(=O)(c2ccccc2)C=C1Sc1ccc([N+](=O)[O-])cc1[N+](=O)[O-] (stereo not drawn)"
result = "38.6 µM (inactive)"

[[record]]
compound = "C1CC2CN(CCCN3CCOCC3)C(C1)O2 (stereo not drawn)"
result = "> 100 µM (inactive)"


###

System: M14
Test: NCI tumour cell line growth inhibition, 48 h
Counter-ions that a name gives are not always drawn. Active and inactive are the calls of the source. No stated cut-off is given here; in the data, active = GI50 up to about 1.1 µM and inactive = higher.
Outcomes: active, inactive

[[record]]
molecule = "CCc1c(CNC2=NCCN2)c(CC)c(CNC2=NCCN2)c(CC)c1CNC1=NCCN1"
group = "inactive"

[[record]]
molecule = "CC(C(=O)N1C(=O)N(C(=O)C(C)C(O)c2ccccc2)C(c2ccccc2)C1c1ccccc1)C(O)c1ccccc1 (centres undefined)"
group = "inactive"

[[record]]
molecule = "CC1CC(c2cccc3c2OCO3)=Nc2ccccc2S1 (centres undefined)"
group = "inactive"

[[record]]
molecule = "CCOC(=O)c1nc2ccccc2nc1Oc1cc(OC)cc(OC)c1"
group = "inactive"

[[record]]
molecule = "Oc1ccc(SCc2cc(O)c(O)c(O)c2)cc1"
group = "inactive"

[[record]]
molecule = "COc1cc(Nc2nc3cc(C(F)(F)F)ccc3nc2C(=O)O)cc(OC)c1OC"
group = "inactive"

[[record]]
molecule = "COc1ccccc1-c1csc(CCC(N)C(=O)O)n1 (centres undefined)"
group = "inactive"

[[record]]
molecule = "CC[C@@H]1C(=O)OC[C@@H]1Cc1cncn1C [PILOCARPINE HYDROCHLORIDE]"
group = "inactive"

[[record]]
molecule = "O=C1C(Cl)=C(NCCO)C(=O)c2c(O)ccc(O)c21"
group = "inactive"

[[record]]
molecule = "COc1c2c(cc3nc4ccccc4nc13)CC[C@H](NC(C)=O)c1cc(=O)c(SC)ccc1-2"
group = "active"

[[record]]
molecule = "COC(NC(=O)Nc1ccc(C)cc1)(C(F)(F)F)C(F)(F)F"
group = "inactive"

[[record]]
molecule = "COc1cc(/C=C2/Oc3c(OC)cccc3C2=O)ccc1O"
group = "inactive"

[[record]]
molecule = "O=C(Cc1ccccc1)NN1C(=O)/C(=C\\c2ccccc2)S/C1=N\\c1ccccc1"
group = "inactive"

[[record]]
molecule = "CCOC(=O)c1c(NC(=O)c2ccccc2)c(C#N)c2n1CCCCC2"
group = "inactive"

[[record]]
molecule = "O=C1CCc2cc3c(cc21)C(C(=O)O)CC3 (centres undefined)"
group = "inactive"

[[record]]
molecule = "CC(=O)C1C(c2ccc(N(C)C)cc2)c2cc3c(cc2OC1(C)O)OCO3 (centres undefined)"
group = "inactive"

[[record]]
molecule = "OCC1OC(n2cnc3c(SCc4ccccc4)ncnc32)C(O)C1O (centres undefined)"
group = "inactive"

[[record]]
molecule = "CN1CCN2c3ccccc3CC(C#N)(C#N)C2C1 (centres undefined)"
group = "inactive"

[[record]]
molecule = "CN(CCCCN1CCCC1)CCCN(C)C(=O)Cc1ccc(Cl)c(Cl)c1"
group = "inactive"

[[record]]
molecule = "Oc1ccc(/C=C/c2ccc3cccc(O)c3n2)cc1O"
group = "inactive"

[[record]]
molecule = "Cc1ccc(-c2nc(Cc3n[nH]c(-c4ccc(C)cc4)n3)n[nH]2)cc1"
group = "inactive"

[[record]]
molecule = "CC(C(=O)c1ccccc1)C(c1ccccc1)N1CCOCC1 (centres undefined)"
group = "inactive"

[[record]]
molecule = "CC1(C)CC[C@]2(C(=O)O)CC[C@]3(C)C(=CC[C@@H]4[C@@]5(C)C[C@H](O)[C@H](O)[C@@](C)(CO)C5=CC[C@]43C)[C@@H]2C1"
group = "inactive"

[[record]]
molecule = "c1ccc(/C(=N\\Nc2nc3ccccc3s2)c2ccccn2)cc1"
group = "inactive"

[[record]]
molecule = "O=C1CCC(=O)c2sccc2N1"
group = "inactive"

[[record]]
molecule = "COc1cc(OC)cc(-c2cc(O)c3cc4c(cc3n2)OCO4)c1"
group = "active"

[[record]]
molecule = "CC(=O)OC1CCn2nnc(COC(=O)NC(C)C)c21 (centres undefined)"
group = "inactive"

[[record]]
molecule = "Nc1ncnc2c1ncn2C1OC(CO)C2OC21 (centres undefined)"
group = "inactive"

[[record]]
molecule = "CC(=O)OCC1OC(n2cc(F)c(=O)[nH]c2=O)C(NC(=O)N(CCCl)N=O)C(OC(C)=O)C1OC(C)=O (centres undefined)"
group = "inactive"

[[record]]
molecule = "COc1cc(/C=C(\\C#N)C(=O)c2ccccc2)ccc1OCc1ccccc1"
group = "inactive"

[[record]]
molecule = "COc1cccc(-c2nnc3c(-c4ccccc4)nc4ccccc4n23)c1"
group = "inactive"

[[record]]
molecule = "CCOC(=O)Nc1cc2nnc(-c3ccccc3)nc2c(N)n1"
group = "inactive"

[[record]]
molecule = "CC1(C)OP(=O)(c2ccccc2)C=C1Sc1ccc([N+](=O)[O-])cc1[N+](=O)[O-] (centres undefined)"
group = "inactive"

[[record]]
molecule = "O=C(Cn1c2c(c3ccccc31)CCCC2)NC1CCCCC1"
group = "inactive"

[[record]]
molecule = "O=C(c1ccccc1)N1CCC(CC2(c3cc4ccccc4[nH]3)OCCO2)CC1"
group = "inactive"

[[record]]
molecule = "Cc1cccc2nc3cccc(C(=O)NCCN(C)C)c3nc12"
group = "active"

[[record]]
molecule = "COc1ccc(/C=C2\\CCC(CNc3ccc(Br)cc3)C2=O)cc1 (centres undefined)"
group = "inactive"

[[record]]
molecule = "COc1ccc2c(c1OC)CN1CCc3cc4c(cc3C1C2)OCO4 (centres undefined) [TETRAHYDROBERBERINE]"
group = "inactive"

[[record]]
molecule = "Cc1ccc(S(=O)(=O)Oc2nc3ccccc3nc2OS(=O)(=O)c2ccc(C)cc2)cc1"
group = "inactive"

[[record]]
molecule = "CC12CC(Sc3ccccc3N1)c1ccccc1O2 (centres undefined)"
group = "inactive"

[[record]]
molecule = "CCN(CC)C(=O)COc1ccc(Br)cc1Br"
group = "inactive"

[[record]]
molecule = "Cc1cccc2c(N)c3cccc(C(=O)NCCN(C)C)c3nc12"
group = "active"

[[record]]
molecule = "O=c1c2cc(I)ccc2nc(Sc2ncccc2[N+](=O)[O-])n1Cc1ccccc1"
group = "inactive"

[[record]]
molecule = "COc1ccc(C2=CC(C(C)=C(C(N)=O)C(N)=O)C=C(c3ccc(Br)cc3)C2)c(OC)c1 (centres undefined)"
group = "inactive"


###

Test system: HT-29
Assay: NCI tumour cell line growth inhibition, 48 h
The source made the active and inactive calls. Cut-off read from the data, not from the text of the source: active = GI50 up to about 1.1 µM and inactive = higher.
Some molecules, each annotated with its measured GI50.
Assay Endpoint: GI50

[[record]]
molecule = "O=C(C(=O)c1ccc(Cc2ccc(C(=O)C(=O)c3ccccc3)cc2)cc1)c1ccccc1"
assay_endpoint = "GI50"
result = "> 100 µM (inactive)"

[[record]]
molecule = "Cc1nnc(Nc2ccccc2)o1"
assay_endpoint = "GI50"
result = "> 100 µM (inactive)"

[[record]]
molecule = "Cc1ccc2c3ccc4c(c3n(C)c2c1)C(=O)C=CC4=O"
assay_endpoint = "GI50"
result = "> 10 µM (inactive)"

[[record]]
molecule = "CC(SCc1ccccc1)C(=O)O (configuration not stated)"
assay_endpoint = "GI50"
result = "> 100 µM (inactive)"

[[record]]
molecule = "CCP(C)(C)=O"
assay_endpoint = "GI50"
result = "> 100 µM (inactive)"

[[record]]
molecule = "O=C(O)CNC(=O)CO/N=C1/C(=C2/C(=O)Nc3ccccc32)Nc2ccccc21"
assay_endpoint = "GI50"
result = "> 100 µM (inactive)"

[[record]]
molecule = "CSc1nc(NC2OC(CO)C(O)C(O)C2O)c(N)c(=O)[nH]1 (configuration not stated)"
assay_endpoint = "GI50"
result = "> 100 µM (inactive)"

[[record]]
molecule = "CC(=O)O[C@H]1CC[C@@]2(C)C(CC[C@]3(C)C2CC[C@]2(C)Oc4c(C)cc(O)cc4C[C@@H]23)C1(C)C (some centres not stated)"
assay_endpoint = "GI50"
result = "11.2 µM (inactive)"

[[record]]
molecule = "CCN(CCCl)c1cc(CN(C)C)cc(NC(=O)c2ccc(C(=O)Nc3ccccc3)cc2)c1"
assay_endpoint = "GI50"
result = "0.174 µM (active)"

[[record]]
molecule = "CCOC(=O)C(=O)Nc1ccccc1C(F)(F)F"
assay_endpoint = "GI50"
result = "> 100 µM (inactive)"

[[record]]
molecule = "CCOc1cn(C2CC(O)C(CO)O2)c(=O)[nH]c1=O (configuration not stated)"
assay_endpoint = "GI50"
result = "> 100 µM (inactive)"

[[record]]
molecule = "COc1ccccc1-c1csc(CCC(N)C(=O)O)n1 (configuration not stated)"
assay_endpoint = "GI50"
result = "> 100 µM (inactive)"

